system: PC-3 prostate; experiment: NCI tumour cell line growth inhibition, 48 h
Quantity Kind: TGI

Please review the following examples before continuing.
Compound	Quantity Kind	Result Value
CC(C)COCC(CN(Cc1ccccc1)c1ccccc1)N1CCCC1 (stereo unspecified)	TGI	13.9 µM
Cc1c2c(Cl)c3c(c(Cl)c2c(C)c2c(Cl)c4c(c(Cl)c12)C(c1ccccc1)(c1ccccc1)C4(c1ccccc1)c1ccccc1)C(c1ccccc1)(c1ccccc1)C3(c1ccccc1)c1ccccc1	TGI	> 100 µM
FC(F)(F)c1ccc(C#Cc2ccccc2C#Cc2ccccc2)cc1	TGI	> 100 µM

Reported TGI, compound C=C1C(=O)O[C@H]2[C@H]1CCC(/C=N/c1ncc(Br)cc1N)=C\CC[C@@]1(C)O[C@@H]21 : ____ 11.1 µM

Item: COc1ccc(S(=O)(=O)Nc2cc(/C=C\c3cc(OC)c(OC)c(OC)c3)ccc2OC)cc1 > 100 µM

Continue with COc1ccc(N2C(=O)C(C)SC2c2cc3cc(Br)ccc3nc2Cl)cc1 (stereo unspecified) > 100 µM

Queued: COc1ccc2c(c1)-c1[nH]c3ccc(OC)cc3c1CC2 24.1 µM

Further, for Nc1ccc(CCSSCCc2ccc(N)cc2)cc1 ? > 78.9 µM

Param item: O=C(NNCc1ccco1)c1cc2ccccc2[nH]1 > 100 µM

Can you check COc1cccc(OCCCN)c1-c1cc(Nc2cnc(C#N)cn2)n[nH]1 next? 21.5 µM

Same again, this time with CN1C(=O)C(c2c[nH]c3ccccc23)N(C)C(=O)C1c1c[nH]c2ccccc12 (stereo unspecified) > 100 µM
